System: T-47D Tam2
EXPERIMENTAL DETAILS: relative IC50 (midpoint of fitted logistic curve, plateau may be below 50% inhibition; CellTiter-Glo viability); higher = less potent
MEASUREMENT SETUP: 4-OH-tamoxifen in medium 1 µM; 72 h
Counter-ions that a name gives are not always drawn.
Assign relative IC50 to each entry below.

Ask: Return the recorded relative IC50 value; entry: Cc1cc(Nc2nc(N[C@@H](C)c3ncc(F)cn3)ncc2Cl)[nH]n1 [AZD1480]
Result: > 1000 nM

Ask: Please list relative IC50 recorded for the molecule CCOc1cc2ncc(C#N)c(Nc3ccc(OCc4ccccn4)c(Cl)c3)c2cc1NC(=O)/C=C/CN(C)C [Neratinib]
Result: 218 nM

Ask: Please report relative IC50 for the following molecule: COc1cc2c(Oc3ccc4[nH]c(C)cc4c3F)ncnc2cc1OCCCN1CCCC1 [Cediranib (AZD2171, Recentin)]
Result: > 1000 nM

Ask: Check the records and state relative IC50 for c1cc(CN2CCCNCCNCCCNCC2)ccc1CN1CCCNCCNCCCNCC1 [Plerixafor]
Result: > 2500 nM

Ask: // fetch relative IC50 given entry CC/C(=C(\c1ccccc1)c1ccc(OCCN(C)C)cc1)c1ccccc1 [Tamoxifen citrate]
Result: 3290 nM

Ask: Please report the measured relative IC50 for Cn1c(CCCC(=O)O)nc2cc(N(CCCl)CCCl)ccc21 [Bendamustine (hydrochloride hydrate)]
Result: > 10000 nM

Ask: Return value of relative IC50 for input CC[C@@H]1C(=O)N(C)c2cnc(Nc3ccc(C(=O)NC4CCN(C)CC4)cc3OC)nc2N1C1CCCC1 [BI 2536] , no commentary.
Result: 75.4 nM

Ask: Please give the documented relative IC50 of O=C(O)CCCc1ccc(N(CCCl)CCCl)cc1 [Chlorambucil]
Result: > 10000 nM

Ask: Tell me measured relative IC50 for O=C(Nc1c[nH]nc1-c1nc2ccc(CN3CCOCC3)cc2[nH]1)NC1CC1 [AT9283] please.
Result: > 1000 nM

Ask: Read the entry COc1ccc(-c2cc3c(C)nc(N)nc3n([C@H]3CC[C@H](OCCO)CC3)c2=O)cn1 and write its reported relative IC50.
Result: 305 nM

Ask: Output relative IC50 of Cc1ccc(C(=O)N(CCCN)[C@@H](c2oc3cc(Cl)ccc3c(=O)c2Cc2ccccc2)C(C)C)cc1
Result: > 100 nM

Ask: Provide measured relative IC50 value, entry: CC(=O)O[C@@]12CO[C@@H]1C[C@H](O)[C@@]1(C)C(=O)[C@H](O)C3=C(C)[C@@H](OC(=O)[C@H](O)[C@@H](NC(=O)OC(C)(C)C)c4ccccc4)C[C@@](O)([C@@H](OC(=O)c4ccccc4)[C@H]21)C3(C)C [Docetaxel]
Result: 4.21 nM

Ask: Complete the entry with relative IC50 for Cc1cccc(-c2nn3c(c2-c2ccnc4ccc(C(N)=O)cc24)CCC3)n1
Result: > 1000 nM

Ask: Specify measured relative IC50 for C[C@]12CC[C@H](O)CC1=CC[C@@H]1[C@@H]2CC[C@]2(C)C(c3cccnc3)=CC[C@@H]12 [Abiraterone (CB-7598)] .
Result: > 5000 nM

Ask: Please indicate relative IC50 recorded for C[C@]12CC[C@@H]3c4ccc(OC(=O)N(CCCl)CCCl)cc4CC[C@H]3[C@@H]1CC[C@@H]2O [Estramustine]
Result: > 990000 nM

Ask: Tell me measured relative IC50 for COc1ccccc1S(=O)(=O)Nc1ccc2c(c1)CN(C)C(=O)N2 [PFI-1] please.
Result: 2710 nM
